Assay: Tolerability in CD-1 mice, body and organ weights (Example 18)
Format: in vivo
Conditions: male CD-1 mice, 50 mg/kg s.c. twice a week (total of 9 treatments), end of study (day 34)
Strand notation (5' to 3'): a small letter for the sugar, then the base; units joined by * are phosphorothioate-linked, units joined directly phosphodiester-linked; [ ] holds rarer units or linkages, { } end groups; capitals alone tell only the bases. k = constrained ethyl (cEt); [5mC] = 5-methylcytosine; d = 2'-deoxy (DNA)
Item-by-item account of Spleen weight
Field format: number, assumed g, no unit text.

Consider the worked cases shown below.
1076453 (GTAATATTGCAATCTG; 3-10-3 cEt gapmer, further chemistry not given here) [compound 1076453] : 0.20
958499 (ATTAGAGTATGTGGCA; 3-10-3 cEt gapmer, further chemistry not given here) [compound 958499] : 0.22
1074755 (k[5mC]*kA*k[5mC]*dT*dT*dT*dT*dA*d[5mC]*dA*dT*dT*dA*kG*kG*kA; antisense) [compound 1074755] : 0.19

For the next question, use this substance.
[in] Please report the measured Spleen weight for 1076481 (k[5mC]*kT*kA*dA*dG*dT*dA*dA*dG*dG*dT*dT*dT*k[5mC]*k[5mC]*k[5mC]) [compound 1076481]
[out] 0.23
